The measurements presented in this section are drawn from PubChem BioAssay.

composite z-score: recorded values
TARGET OR TEST SYSTEM: Calmodulin-1 (Homo sapiens) (UniProt P0DP23)
PROCEDURE TEXT: CALM1 binders on microarrays, EGTA buffer, profiling panel, biochemical, small-molecule microarray, Cy5-labelled CALM1 (AID 1111);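 further: labelled calmodulin applied in Tris saline Tween buffer holding calcium plus EGTA and DTT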
SETTINGS: Cy5-CALM1 binding fluorescence, higher = more signal
MEASURED ENDPOINT: composite z-score

{"COMPOUND": "CN(C)C(=O)[C@@]1(Cc2ccccc2CN=[N+]=[N-])N=C(c2ccc(OCCCO)cc2)O[C@H]1c1ccccc1CN=[N+]=[N-]", "TARGET OR TEST SYSTEM": "Calmodulin-1 (Homo sapiens) (UniProt P0DP23)", "ASSAY RESULT": 1.69}
{"COMPOUND": "CC(C)C[C@@H]1NC(=O)[C@@H]2C[C@H](C(=O)NCCCCN(C)C)[C@H](c3cccc(OCCO)c3)N2C1=O", "TARGET OR TEST SYSTEM": "Calmodulin-1 (Homo sapiens) (UniProt P0DP23)", "ASSAY RESULT": 0.0053}
{"COMPOUND": "O=C1O[C@H](c2ccccc2)[C@H](c2ccccc2)N2[C@H]1[C@@H](C(=O)N1CCN(c3ncccn3)CC1)[C@]1(C(=O)Nc3ccc(C#CC4(O)CCCCCC4)cc31)[C@H]2c1ccc(OCCO)cc1", "TARGET OR TEST SYSTEM": "Calmodulin-1 (Homo sapiens) (UniProt P0DP23)", "ASSAY RESULT": 2.26}
{"COMPOUND": "O=C(NCc1ccccc1)[C@@H]1c2ccccc2C(=O)N(Cc2ccccc2C(F)(F)F)[C@H]1c1ccc(CO)cc1", "TARGET OR TEST SYSTEM": "Calmodulin-1 (Homo sapiens) (UniProt P0DP23)", "ASSAY RESULT": -0.526}
{"COMPOUND": "CCCCCCCCCCC(O)C1C=CC2C(=O)N(C)C(=O)C2N1Nc1ccc([N+](=O)[O-])cc1[N+](=O)[O-] (stereo not drawn)", "TARGET OR TEST SYSTEM": "Calmodulin-1 (Homo sapiens) (UniProt P0DP23)", "ASSAY RESULT": 1.62}
{"COMPOUND": "COc1ccccc1CN1C(=O)c2ccccc2[C@](Cc2ccccc2I)(C(=O)NCC(F)(F)F)[C@@H]1c1ccc(CO)cc1", "TARGET OR TEST SYSTEM": "Calmodulin-1 (Homo sapiens) (UniProt P0DP23)", "ASSAY RESULT": 2.03}
{"COMPOUND": "COCCOC(=O)N1C(=O)[C@@]2(c3ccccc31)[C@H](C(=O)N1CCN(c3ncccn3)CC1)[C@H]1C(=O)O[C@H](c3ccccc3)[C@H](c3ccccc3)N1[C@@H]2c1ccc(O)cc1", "TARGET OR TEST SYSTEM": "Calmodulin-1 (Homo sapiens) (UniProt P0DP23)", "ASSAY RESULT": 0.949}
{"COMPOUND": "COCCOC(=O)N1C(=O)[C@@]2(c3cc(C#CCCO)ccc31)[C@H](C(=O)Nc1nc3ccccc3s1)[C@H]1C(=O)O[C@H](c3ccccc3)[C@H](c3ccccc3)N1[C@@H]2c1ccccc1OCCO", "TARGET OR TEST SYSTEM": "Calmodulin-1 (Homo sapiens) (UniProt P0DP23)", "ASSAY RESULT": 0.827}
{"COMPOUND": "Cc1ccc(S[C@]2(C(=O)O)CC(=O)N(Cc3cc(C(F)(F)F)cc(C(F)(F)F)c3)[C@@H]2c2ccc(CO)cc2)cc1", "TARGET OR TEST SYSTEM": "Calmodulin-1 (Homo sapiens) (UniProt P0DP23)", "ASSAY RESULT": -0.743}
{"COMPOUND": "CCCC[C@@H](O)C1=C(COc2ccccc2)C[C@H]2C(=O)N(C)C(=O)[C@H]2[C@H]1CO", "TARGET OR TEST SYSTEM": "Calmodulin-1 (Homo sapiens) (UniProt P0DP23)", "ASSAY RESULT": -0.756}
{"COMPOUND": "COCCOC(=O)N1C(=O)[C@@]2(c3cc(C#CC4=CCCCC4)ccc31)[C@H](c1ccccc1OCCO)N1[C@H](c3ccccc3)[C@H](c3ccccc3)OC(=O)[C@H]1[C@@H]2C(=O)N1CCCCCCC1", "TARGET OR TEST SYSTEM": "Calmodulin-1 (Homo sapiens) (UniProt P0DP23)", "ASSAY RESULT": -0.529}
{"COMPOUND": "Cc1cc(C)cc(N2C(=O)CSC2c2cccc([N+](=O)[O-])c2)c1 (stereo not drawn)", "TARGET OR TEST SYSTEM": "Calmodulin-1 (Homo sapiens) (UniProt P0DP23)", "ASSAY RESULT": 1.6}
{"COMPOUND": "COc1ccc(NC(=O)O[C@H]2[C@H](OC(=O)Nc3ccccc3)[C@H](OC(=O)Nc3ccccc3)[C@@H](OC)O[C@@H]2CO)cc1", "TARGET OR TEST SYSTEM": "Calmodulin-1 (Homo sapiens) (UniProt P0DP23)", "ASSAY RESULT": 0.692}

###

TARGET OR TEST SYSTEM: Albumin (Bos taurus) (UniProt P02769)
Sequence (P02769 whole entry, looked up): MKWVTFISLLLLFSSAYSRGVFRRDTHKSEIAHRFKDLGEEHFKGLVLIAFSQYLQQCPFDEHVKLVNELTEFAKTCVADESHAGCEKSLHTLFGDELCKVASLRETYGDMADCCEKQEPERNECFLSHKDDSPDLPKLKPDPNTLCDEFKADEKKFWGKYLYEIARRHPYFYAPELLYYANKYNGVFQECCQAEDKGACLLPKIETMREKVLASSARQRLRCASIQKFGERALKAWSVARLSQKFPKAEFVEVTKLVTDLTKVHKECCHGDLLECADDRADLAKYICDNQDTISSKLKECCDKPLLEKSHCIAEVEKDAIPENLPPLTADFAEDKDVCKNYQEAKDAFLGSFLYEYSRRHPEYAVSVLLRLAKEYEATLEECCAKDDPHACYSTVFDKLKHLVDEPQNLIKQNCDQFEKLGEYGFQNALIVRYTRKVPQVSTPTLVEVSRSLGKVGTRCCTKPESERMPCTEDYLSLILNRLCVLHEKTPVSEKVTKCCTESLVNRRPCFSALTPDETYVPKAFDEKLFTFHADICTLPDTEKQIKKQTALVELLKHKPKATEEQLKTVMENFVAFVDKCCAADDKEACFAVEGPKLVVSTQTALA
PROCEDURE TEXT: bovine serum albumin binders on microarray, profiling panel, artefact control for SMM control protein annotation, biochemical, small-molecule microarray, Alexa647 label, 635/667 nm fluorescence (AID 1118);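 further: score merges 667 nm emission intensity and signal-to-noise per printed compound spot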
SETTINGS: BSA-A647 binding, fluorescence 635 nm, higher = more signal

{"MOLECULE": "COCCOC(=O)N1C(=O)[C@@]2(c3cc(C#Cc4ccc(OC)cc4)ccc31)[C@H](C(=O)Nc1nc3ccccc3s1)[C@H]1C(=O)O[C@H](c3ccccc3)[C@H](c3ccccc3)N1[C@@H]2c1ccc(O)cc1", "composite z-score": 0.374}
{"MOLECULE": "CCCCC=C[C@@H](NC(=O)c1ccc(-c2ccccc2)cc1)c1ccccc1", "composite z-score": 0.43}
{"MOLECULE": "CC(C)C[C@@H]1NC(=O)[C@@H]2C[C@H](C(=O)NCCCCCN)[C@H](c3ccc(O)cc3)N2C1=O", "composite z-score": 0.85}
{"MOLECULE": "CC(C)C(=C=CC[C@H](O)c1cccc(OCCO)c1)C[C@H](O)c1cc(Cl)cc(Cl)c1O", "composite z-score": 0.773}
{"MOLECULE": "[N-]=[N+]=NCc1ccccc1C[C@@]1(C(=O)NCc2ccccc2)N=C(c2ccc(OCCCO)cc2)O[C@@H]1c1ccccc1N=[N+]=[N-]", "composite z-score": 0.428}
{"MOLECULE": "OCC1CC(c2ccccc2)=NO1 (stereo not drawn)", "composite z-score": -0.558}
{"MOLECULE": "COc1ccc(-c2nc(-c3ccccc3)c3c(c2C)CO[Si]3(C(C)C)C(C)C)cn1", "composite z-score": -0.475}
{"MOLECULE": "CN(C)c1ccc(C(O)C2C=CC3C(=O)N(c4ccccc4)C(=O)C3N2Nc2ccc([N+](=O)[O-])cc2)cc1 (stereo not drawn)", "composite z-score": 0.653}

###

PROCEDURE TEXT: HepG2 liver cancer cell viability effects, profiling panel, resazurin fluorescence, 24 h, PK04 Diversity Set (AID 1172); further: test concentration not given here
SETTINGS: higher = more signal

{"COMPOUND": "OCC1CC(c2ccccc2)=NO1 (stereo not given)", "z-score": -0.107}
{"COMPOUND": "C=CC[C@]1(C(=O)O)COC(c2ccc(OCCCO)cc2)=N1", "z-score": 0.264}
{"COMPOUND": "O=C1N(Cc2ccccc2)c2ccccc2[C@@H]2OC(c3ccc(OCCCO)cc3)=N[C@]12Cc1ccccc1", "z-score": -0.408}
{"COMPOUND": "CC[C@H]1C2=C3C(CC[C@H]4C(OCc5ccc(F)cc5C(F)(F)F)OC[C@](C)([C@@H]34)N(C(=O)OC(C)(C)C)C2)C(COC)C1COC (stereo not given in full)", "z-score": -0.983}
{"COMPOUND": "C=C(/C(=C/C[C@H](OC(C)=O)c1ccccc1OCCO)c1cc(C(=O)OC)ccc1OC)C(C)C", "z-score": -0.169}
{"COMPOUND": "Cc1ccc(S[C@]2(C(=O)NCC(F)(F)F)CC(=O)N(Cc3ccccc3)[C@@H]2c2ccc(CO)cc2I)cc1", "z-score": 0.448}
{"COMPOUND": "C=CCC(OC(C)=O)[C@@H]1[C@@H](N(Cc2ccc(-c3cccc(C(F)(F)F)c3)o2)C(=O)c2ccc(C)cc2)c2cc(OCCCO)ccc2N1C(=O)c1ccc2ccccc2c1 (stereo not given in full)", "z-score": 0.472}
{"COMPOUND": "C=C(COC)C(=O)CC[C@@H](OC(=O)c1cccnc1)c1ccc(OCCO)cc1", "z-score": 0.379}
{"COMPOUND": "C[C@@H]1NC(=O)[C@@]23C(=O)N[C@@H](Cc4ccccc4)C2[C@H](C)[C@@]2(C)O[C@H]2C3/C=C/C/C=C\\CNC(=O)[C@@H]2CCCN2C1=O (stereo not given in full)", "z-score": -0.289}
{"COMPOUND": "C#CCN([C@@H](Cc1ccc(O)cc1)C(=O)OC)[C@@H](/C=C/C1CC1)[C@H](O)Cc1ccccc1", "z-score": -1.12}
{"COMPOUND": "C=CC[C@]1(C(=O)NCCN2CCOCC2)N=C(c2ccc(OCCCO)cc2)O[C@H]1c1ccccc1CN=[N+]=[N-]", "z-score": 0.735}
{"COMPOUND": "CC(C)N1C(=O)C[C@@](C(=O)NCCCN(C)C)(c2ccc([N+](=O)[O-])cc2)[C@H]1c1ccc(CO)cc1", "z-score": 0.0314}
{"COMPOUND": "COc1cc2c(cc1OC)CN(C(=O)[C@@H]1[C@H]3C(=O)O[C@H](c4ccccc4)[C@H](c4ccccc4)N3[C@H](c3ccc(OCCO)cc3)[C@@]13C(=O)Nc1ccccc13)CC2", "z-score": -0.44}
{"COMPOUND": "O=C1NC(=O)C2C1C=CC(C(O)c1cccc3ccccc13)N2Nc1ccc(Cl)cc1Cl (stereo not given)", "z-score": -2.01}
{"COMPOUND": "O=C1O[C@@H](c2ccccc2)[C@@H](c2ccccc2)N2[C@@H](c3ccccc3OCCO)[C@]3(C(=O)Nc4ccc(C#CCCO)cc43)[C@@H](C(=O)N3CCCCCCC3)[C@H]12", "z-score": 0.29}
